Cited source: ChEMBL document CHEMBL3621159

# assay-details: Half life in patient at 25 to 50 mg, administered as single dose
# Format: ADME, organism-based
# condition-notes: human, in vivo
measure-name: half-life (h)

INSERT INTO measurements (compound, measured) VALUES
  ('Nc1cc(F)ccc1NC(=O)c1ccc(CNC(=O)/C=C/c2cccnc2)cc1 [TUCIDINOSTAT]', 24);
